# System: SK-MEL-28
# EXPERIMENT: NCI tumour cell line growth inhibition, 48 h
The source made the active and inactive calls. Cut-off read from the data, not from the text of the source: active = GI50 up to about 1.1 µM and inactive = higher. Positions of bridges follow the written chain, without caps; N, C: chain ends. Non-standard residues stand in square brackets, D forms with d. Residues, ends and D or L forms follow the SMILES beside them. Aib = CC(C)(N)C(=O)O; βAla = NCCC(=O)O
TEST READOUT: GI50

Req: I am curious: what GI50 value has been reported for `COC(=O)Cc1ccc2c(c1)Sc1ccc(CC(=O)OC)cc1N2C` ?
Resp: 38.3 µM (inactive)

Req: Now the same for CC1(C)NC(=O)C(NC(=O)C(N)CC(=O)O)CCCCNC(=O)CCNC1=O (configuration not stated) (H-DK[Aib][βAla]; lactam 2-C; configuration not given here)
Resp: > 100 µM (inactive)

Req: Now the same for CCC1([N+](=O)[O-])CC2C=CC1C2 (configuration not stated)
Resp: > 100 µM (inactive)

Req: Now the same for `CCOP(=O)(Nc1ccc(-c2ccccc2)cc1)OCC`
Resp: > 100 µM (inactive)

Req: Now the same for CCOC(=O)c1nc2c3c(ncn2n1)Oc1c(c(-c2ccccc2)nn1-c1ccccc1)C3c1ccc(OC)c(OC)c1 (configuration not stated)
Resp: 49.2 µM (inactive)

Req: Now the same for `Cc1nnc2n1N=C(c1cc(F)c(Cl)cc1Cl)/C(=C/c1ccc(-c3ccc([N+](=O)[O-])cc3)o1)S2`
Resp: > 100 µM (inactive)

Req: Now the same for `CCN(CC)Cc1ccccc1CC(=O)N1c2ccccc2C(=O)Nc2cccnc21`
Resp: > 100 µM (inactive)
